- System: TK-10
- Assay Name: NCI tumour cell line growth inhibition, 48 h
Active and inactive are the calls of the source. Rule as the data show it: active = GI50 up to about 1.1 µM and inactive = higher.
The reply should be one of these categories: y = active, n = inactive

// known answers, use as guide
Compound: CC1=Nc2sc3c(c2C2=NCCN12)CCCC3
Class Assignment: n

Compound: Brc1ccc(-c2cn3ccncc3n2)cc1
Class Assignment: n

Compound: CC(=O)O[C@H]1C(=O)[C@@]2(C)[C@H]([C@H](OC(=O)c3ccc([N+](=O)[O-])cc3)[C@]3(O)C[C@H](OC(=O)[C@H](O)[C@@H](NC(=O)c4ccccc4)c4ccccc4)C(C)=C1C3(C)C)[C@]1(OC(C)=O)CO[C@@H]1C[C@@H]2O
Class Assignment: n

Compound: COc1c2c(cc3c1OCO3)C13C=CC(OC)CC1N(CC3)C2.[O-][Cl+3]([O-])([O-])O (stereo not given)
Class Assignment: n

Compound: CN(C)CCCn1c(Cn2nc3ccccc3n2)nc2cc(C(F)(F)F)ccc21
Class Assignment: n

Compound: CC1=C[C@@H](C)C[C@]2(C)CC[C@H](O2)[C@]23CC[C@](C)(C[C@H](O2)[C@@H]2O[C@@](C)(CC2=O)[C@@H](O)[C@H]2CC[C@@]4(CCC[C@@H](O4)[C@H](C)C(=O)O[C@H]4C[C@H]([C@]5(O)OCC[C@H](C)[C@@H]5O)O[C@H]4C=C1)O2)O3
Class Assignment: y

Compound: CNc1nc2n(CCO)c(-c3ccccc3)c(-c3ccccc3)nc-2c(=O)n1
Class Assignment: n

Compound: COc1cc2c3c(n(C)c(=O)c2cc1OC)-c1cc2c(cc1/C3=C\CCCI)OCO2
Class Assignment: y

Prompt: What outcome does the record of this test show for Cn1c2c([N+](=O)[O-])[se]nc2c(=O)n1-c1ccc([N+](=O)[O-])cc1 ?
Response: n

Prompt: Check the results log: what was the call for NC(CCCNCc1ccccc1O)C(=O)O (stereo not given) ?
Response: n

###

- Test system: MOLT-4
- Assay Name: NCI tumour cell line growth inhibition, 48 h
Calls of active or inactive are those of the source. Cut-off read from the data, not from the text of the source: active = GI50 up to about 1.1 µM and inactive = higher.
// allowed return values: 1 (yes) for active, 0 (no) for inactive

Molecule: C/C(CC(=O)Nc1ccc([N+](=O)[O-])cc1)=N\Nc1ccc([N+](=O)[O-])cc1[N+](=O)[O-]
Class Assignment: 0 (no)
--
Molecule: Nc1c(C(=O)Nc2ccccc2)[n+]([O-])c2ccccc2[n+]1[O-]
Class Assignment: 0 (no)
--
Molecule: O=C(Cn1ccnc1[N+](=O)[O-])NCc1ccc(F)cc1
Class Assignment: 0 (no)
--
Molecule: O=C(NCCC(F)(F)C(F)(F)C(F)(F)C(F)(F)F)NC1OC(CO)C(O)C(O)C1O (configuration not stated)
Class Assignment: 0 (no)
--
Molecule: CCN(CC)C1CCC(C2c3cc4c(cc3OC(N3CCOCC3)C2C)OCO4)CC1 (configuration not stated)
Class Assignment: 0 (no)

Prompt: What call does the record list for CCOc1cc2c(cc1O)C(N)C[C@@H]1[C@@H]2CC[C@]2(C)[C@@H](O)CC[C@@H]12 (some centres not stated) ?
Response: 0 (no)

Prompt: Can you look up the reported call for CCOC(=O)Nc1ccc(S(=O)(=O)Nc2ccc(Br)cc2)cc1 for me?
Response: 0 (no)

Prompt: Please indicate how the test categorized CC(C)=CC1C[C@H](C2CC=C3C2(C)CCC2[C@@]3(C)C(=O)CC3[C@]2(C)C=CC(=O)[C@]3(C)CO)CO1 (some centres not stated) .
Response: 0 (no)

Prompt: Look up the recorded call for COc1ccc(CNC(C)C(=O)O)cc1 (configuration not stated) in this test.
Response: 0 (no)

Prompt: State the result this test recorded for Oc1ccc[n+](Cc2ccccc2)c1 .
Response: 0 (no)

###

- System: T47D
- Assay Name: NCI tumour cell line growth inhibition, 48 h
The source made the active and inactive calls. No stated cut-off is given here; in the data, active = GI50 up to about 1.1 µM and inactive = higher.
Please reply with one of these outcomes: active, inactive

Take a look at these entries with their results.
Molecule: COCC(=O)OC1CCn2c1nc1c2C(=O)C(C)=C(NC(C)=O)C1=O (stereo unspecified)
System Name: T47D
Class Assignment: active

Molecule: COC1=C(OC)C(=O)C(Sc2ccc3ccccc3c2)=CC1=O
System Name: T47D
Class Assignment: inactive

Molecule: C=Cc1cc(OC)c2c(c1)c(=O)oc1c2cc(OC)c2c(O)ccc(C3OC(C)C(O)C(C)(O)C3O)c21 (stereo unspecified)
System Name: T47D
Class Assignment: active

Molecule: C/C(=N\NC(N)=O)C(CN(C)C)C(c1ccccc1)c1c(O)c2ccccc2oc1=O (stereo unspecified)
System Name: T47D
Class Assignment: inactive

Molecule: COc1c2c(cc3c1OCO3)C13C=CC(OC)CC1N(CC3)C2.[O-][Cl+3]([O-])([O-])O (stereo unspecified)
System Name: T47D
Class Assignment: inactive

Molecule: O=c1ccn2n1Cc1ccccc1C2
System Name: T47D
Class Assignment: inactive

Molecule: CC(=O)O[C@H]1C(=O)[C@@]2(C)[C@H]([C@H](OC(=O)c3ccc([N+](=O)[O-])cc3)[C@]3(O)C[C@H](OC(=O)[C@H](O)[C@@H](NC(=O)c4ccccc4)c4ccccc4)C(C)=C1C3(C)C)[C@]1(OC(C)=O)CO[C@@H]1C[C@@H]2O
System Name: T47D
Class Assignment: inactive

Molecule: CCC/C(C)=N/NC(=S)SC.CCC/C(C)=N/NC(=S)SC.[Zn+2]
System Name: T47D
Class Assignment: inactive

Molecule: CCN1C[C@]2(C)CC[C@H](OCc3ccccc3)C34C5C[C@@H]6CC[C@](O)(C(C[C@@H]32)C14)C5[C@H]6OCc1ccccc1 (stereo partly specified)
System Name: T47D
Class Assignment: inactive

Molecule: O=c1c2cc([N+](=O)[O-])cnc2sn1-c1ccc(Br)cc1
System Name: T47D
Class Assignment: inactive

Prompt: Any idea what this test logged for CC1(C=O)CCC23COC4(CCC5C6(C)CCC(OC7OCC(OC8OC(CO)C(O)C(OC9OC(CO)C(O)C(O)C9O)C8OC8OCC(O)C(O)C8O)C(O)C7OC7OC(CO)C(O)C(O)C7O)C(C)(C)C6CCC5(C)C4(C)CC2O)C3C1 (stereo unspecified) ?
Response: inactive

Prompt: I'd appreciate the recorded outcome for C/C(=C/C(=O)N(C)c1ccccc1Cl)O[Si](C(C)C)(C(C)C)C(C)C from this test.
Response: inactive

Prompt: Hi, sorry to bother you, what did the test record for Cc1ccc2nc(-c3ccc(N)c(Br)c3)sc2c1 ?
Response: active

Prompt: // param item: O=C(C=P(c1ccccc1)(c1ccccc1)c1ccccc1)c1ccc(-c2cccc([N+](=O)[O-])c2)cc1 ; yields the recorded call
Response: inactive

Prompt: What outcome does the record of this test show for CS(=O)(=O)OCC(CCl)(CCl)CCl ?
Response: inactive

Prompt: How did this test come out for COP(C)(=O)C(Cc1c[nH]c2ccccc12)NC(=O)OCc1ccccc1 (stereo unspecified) ?
Response: inactive

Prompt: Outcome logged for CC(C)(C)n1nc(C2CC2)cc1NC(=O)Nc1ccc(Cl)cc1 in this assay:
Response: inactive

Prompt: // param item: CCOC(=O)c1cc(=O)c2ccnc3c2n1CCS3 ; yields the recorded call
Response: inactive

Prompt: Field: outcome | Entry: COc1ccc(CNC(C)C(=O)O)cc1 (stereo unspecified)
Response: inactive

Prompt: // outcome(item) with item = O=c1n(CC2CO2)c(=O)n(CC2CO2)c(=O)n1CC1CO1 (stereo unspecified) [TEROXIRONE]
Response: inactive

Prompt: Per the assay record, what outcome was assigned to CCCCSC1=N/C(=C\c2ccccc2O)C(Cl)=N1 ?
Response: inactive

###

- Tested on: HCT-15
- Assay Name: NCI tumour cell line growth inhibition, 48 h
Output y for records whose GI50 is lower than 50 µM, n for records at or above 50 µM.

Worked set:
Molecule: O=C(O)CCc1ccc(-c2ccccc2)[nH]1
Class Assignment: n
--
Molecule: O=C(CSc1nnc(-c2ccccn2)s1)N/N=C/c1ccc([N+](=O)[O-])cc1
Class Assignment: y
--
Molecule: Cn1c2c(c3ccccc31)C1CCCCC1C1C(=O)NC(=O)C21 (configuration not stated)
Class Assignment: n
--
Molecule: COP(C)(=O)C(Cc1c[nH]c2ccccc12)NC(=O)OCc1ccccc1 (configuration not stated)
Class Assignment: n
--
Molecule: COC(=O)C#CC1(O)C=CC(=O)C=C1
Class Assignment: y
--
Molecule: O=C(/C=C/c1ccc(Cl)c(Cl)c1)c1ccc(F)cc1
Class Assignment: y

Prompt: Input Cc1c(-c2ccccc2)c(-c2ccc(OCCN(C)C)cc2)n2ccccc12 ; condition: GI50 strictly below 50 µM. Does it hold?
Response: y

###

- System: SK-MEL-5
- Assay Name: NCI tumour cell line growth inhibition, 48 h
Active and inactive are the calls of the source. Rule as the data show it: active = GI50 up to about 1.1 µM and inactive = higher.
Property Name: GI50

Reference set, count: 2
Molecule: Cc1cc(N(CCC#N)CCC#N)ccc1/C=C(\NC(=O)/C=C/c1ccccc1)NC(=O)Nc1ccccc1C
Observed Measurement: 61 µM (inactive)

Molecule: O=C(/C=C/c1ccc(Cl)c(Cl)c1)c1ccc(F)cc1
Observed Measurement: 19.9 µM (inactive)

Prompt: Item NC(CCCNCc1ccccc1O)C(=O)O (stereo not drawn) has what recorded GI50?
Response: > 100 µM (inactive)

Prompt: Query (molecule): O=C1c2ccccc2S(=O)(=O)c2cc(-c3nn[nH]n3)ccc21 [DOXANTRAZOLE] ; field requested: GI50
Response: > 100 µM (inactive)

Prompt: Please look up its GI50: Cc1cc(=O)oc2cc(OCc3nc4ccccc4c(=O)n3-c3ccccc3)ccc12
Response: > 100 µM (inactive)
